The reported numbers originate from patent US11512083B2.

test.system: VHL (Homo sapiens (Human))
assay: VHL fluorescence polarization (FP) competition assay
Assay type: binding
measurement.conditions: 1% in DMSO
IC50 reference
Record the value in µM, omitting the unit from your answer.

Previously resolved entries follow.
[[record]]
compound = "CSC[C@H](NC(=O)CCC(C)C)C(=O)N1C[C@H](O)C[C@H]1C(=O)NCc1ccc(-c2scnc2C)cc1 [Example 22]"
test_system = "VHL (Homo sapiens (Human))"
units_text = "µM"
measured_number = 6.25

[[record]]
compound = "Cc1ncsc1-c1ccc(CNC(=O)[C@@H]2C[C@@H](O)CN2C(=O)[C@@H](NC(=O)C2CCN(C)CC2)C(C)(C)C)cc1 [Example 75]"
test_system = "VHL (Homo sapiens (Human))"
units_text = "µM"
measured_number = 13.7


Fill in reported IC50 for this entry: Cc1ncsc1-c1ccc(CNC(=O)[C@@H]2C[C@@H](O)CN2C(=O)[C@@H](NC(=O)c2ccccc2C#N)C(C)(C)C)cc1 [Example 70]
2.02

Specify IC50 for Cc1ncsc1-c1ccc(CNC(=S)[C@@H]2C[C@@H](O)CN2C(=O)[C@H](C(C)C)N2Cc3ccccc3C2=O)cc1 [Example 110] and stop.
21.6

Note IC50 for the compound shown: Cc1ncsc1-c1ccc(CNC(=O)C2(C)C[C@@H](O)CN2C(=O)[C@H](C(C)C)N2Cc3ccccc3C2=O)cc1 (single isomer, unassigned) [Example 129]
19.3

---

As shown below, each of these compounds has a reported IC50 value.
test.system: VHL (Homo sapiens (Human), UniProt P40337)
assay: VHL fluorescence polarization (FP) competition assay
Assay type: binding
measurement.conditions: 10% in DMSO
Please give a number only; it is taken to be in µM.

Here is how some compounds turned out for IC50.
[[record]]
chemical_structure = "Cc1ncsc1-c1ccc(CNC(=O)[C@@H]2C[C@@H](O)CN2C(=O)[C@@H](NC(=O)c2ccccc2C#N)C(C)(C)C)cc1"
parameter = "IC50"
measured_number = 1.2

[[record]]
chemical_structure = "CSC[C@H](NC(=O)CCC(C)C)C(=O)N1C[C@H](O)C[C@H]1C(=O)NCc1ccc(-c2scnc2C)cc1"
parameter = "IC50"
measured_number = 8.29


Pending compound:
Give IC50 for "Cc1ncsc1-c1ccc(CNC(=O)[C@@H]2C[C@@H](O)CN2C(=O)[C@@H](NC(=O)C2CCN(C)CC2)C(C)(C)C)cc1" tested on VHL (Homo sapiens (Human), UniProt P40337).
9.29
